Origin of measurements: PubChem BioAssay (NCI)

tested on: A498 renal; test: NCI-60 one-dose screen, 48 h (100 = growth as untreated, 0 = no growth, -100 = all killed); conditions: 10 µM unless noted
This is part of a sample that, as a whole, favours compounds with a hit. Of some 83,000 tested, about 20% had one in any assay.
Observation type: growth (%)

INSERT INTO measurements (compound, observation_type, unit_descriptor, data_value) VALUES
  ('COc1ccc(-c2nsc3c2NC(=O)CC3c2cccc(OC)c2)cc1 (stereo unspecified)', 'growth', '%', 27.4),
  ('Cc1nn(-c2nc3ccccc3[nH]2)c2c1C(c1ccc(OCC(N)=O)cc1)CC(=O)N2 (stereo unspecified)', 'growth', '%', 79.1),
  ('Nc1ccc(-c2ccc(-c3ccccc3N)c3[nH]c4ccccc4c23)cc1', 'growth', '%', 20.6),
  ('O=C1/C(=C\c2ccc[nH]2)c2ccccc2N1c1ccccc1', 'growth', '%', 101),
  ('O=C(c1ccccc1)N(C(=S)NCCc1ccc(Cl)cc1)c1ccccc1', 'growth', '%', 95.3),
  ('COc1ccc(-c2cc(=O)c3c(OC)c4ccoc4c(/C=C/C=O)c3o2)cc1', 'growth', '%', 78.8),
  ('CCOc1cc2c(cc1OCC)C(c1cc(C)c(O)c(C)c1)NCC2 (stereo unspecified)', 'growth', '%', 88.1),
  ('COc1ccc(/C=C/C(=O)c2c(C)nc3ccccc3c2/C=C/c2ccccc2)cc1O', 'growth', '%', 106),
  ('Cn1nc(C(C)(C)C)cc1NC(=O)Cc1ccc(/C=C2\C(=O)Nc3ccccc32)cc1', 'growth', '%', 62.9),
  ('NC(=O)CSc1nc(-c2ccc(F)cc2)cc(-c2ccco2)n1', 'growth', '%', 103),
  ('Clc1ccc(COc2ccc(Nc3ncnc4onc(-c5ccccc5)c34)cc2)cc1', 'growth', '%', 69.2),
  ('Cc1cc2c(c(C)c1Cl)C(=O)/C(=C/c1cccc([N+](=O)[O-])c1)O2', 'growth', '%', 95.6),
  ('O=C(CSc1ncccc1C(=O)O)Nc1ccc(Oc2ccccc2)cc1', 'growth', '%', 96.7),
  ('COC(=O)C1(C)COP(=O)(Nc2ccc(OC)cc2)OC1 (stereo unspecified)', 'growth', '%', 101),
  ('Cc1cc(Nc2ccc(OCc3ccccc3)cc2)nc2cc(O)ccc12', 'growth', '%', 95.8),
  ('Cn1c2c(c(=O)[nH]c1=O)NC1=C(C(=O)c3ccccc31)C1(C=C(O)c3ccccc31)N2 (stereo unspecified)', 'growth', '%', 143),
  ('COc1cc(OC)cc(N2C(=O)N(Cc3ccc(C(C)(C)C)cc3)c3ccccc3S2(=O)=O)c1', 'growth', '%', 98.6),
  ('CCn1c(Cc2ccccc2Nc2c(Cl)cccc2Cl)nnc1SCC(=O)NN1C(=O)/C(=C/c2cccc(OC)c2OC)SC1=S', 'growth', '%', 103),
  ('CCOC(=O)c1cc2c(n1Cc1cc(OC)c(OC)c(OC)c1)-c1oncc1CCC2', 'growth', '%', -22.9),
  ('O=C1Nc2ccccc2/C1=C/c1cccs1', 'growth', '%', 106),
  ('Cc1sc2ncn(CC(=O)Nc3ccc(S(N)(=O)=O)cc3)c(=O)c2c1C', 'growth', '%', 100);
